- Tested on: PDC 899932-113-R3-J6 complex spheroid viability
- test_protocol: Anticancer human tumor 899932-113-R3-J6-PDC patient-derived melanoma cell line growth inhibition [RAS]; active = viability on the fitted dose curve at most 10% of control; inactive = the rest
- test_settings: second compound 0.00949 µM; first compound 0.03 µM
// one of YES for active, NO for inactive, no free text

Below, 3 compounds whose answers are already recorded.
- compound: "CC1(C)CCC(Nc2ncc(C(F)(F)F)c(-c3c[nH]c4c(P(C)(C)=O)c(C#N)ccc34)n2)CN1 (centres undefined) + CCn1c(-c2cccnc2C(C)OC)c2c3cc(ccc31)N1CCOC(CC(NC(=O)C(C(C)C)N(C)C(=O)C3(F)CCN(C(=O)C#CC(C)(C)N(C)C)CC3)C(=O)N3CCCC(N3)C(=O)OCC(C)(C)C2)C1"
  group_label: "NO"
- compound: "CCc1c2c(nc3ccc(O)cc13)-c1cc3c(c(=O)n1C2)COC(=O)[C@]3(O)CC + CCn1c(-c2cc(N3CCN(C)CC3)cnc2C(C)OC)c2c3cc(ccc31)-c1csc(n1)CC(NC(=O)C1CC1C)C(=O)N1CCCC(N1)C(=O)OCC(C)(C)C2"
  group_label: "YES"
- compound: "CCc1c2c(nc3ccc(O)cc13)-c1cc3c(c(=O)n1C2)COC(=O)[C@]3(O)CC + CCn1c(-c2cccnc2C(C)OC)c2c3cc(ccc31)N1CCOC(CC(NC(=O)C(C(C)C)N(C)C(=O)C3(F)CCN(C(=O)C#CC(C)(C)N(C)C)CC3)C(=O)N3CCCC(N3)C(=O)OCC(C)(C)C2)C1"
  group_label: "NO"

Please turn your attention to the following entry.
Q: Please indicate how the test categorized CC1(C)CCC(Nc2ncc(C(F)(F)F)c(-c3c[nH]c4c(P(C)(C)=O)c(C#N)ccc34)n2)CN1 (centres undefined) + CCn1c(-c2cc(N3CCN(C)CC3)cnc2C(C)OC)c2c3cc(ccc31)-c1csc(n1)CC(NC(=O)C1CC1C)C(=O)N1CCCC(N1)C(=O)OCC(C)(C)C2 .
Ans: YES

----------
- Test system: PDC 899932-113-R3-J6 complex spheroid viability
- test_protocol: Anticancer human tumor 899932-113-R3-J6-PDC cell line growth inhibition [RAS];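 also: spheroids exposed to agents for seven days before readout; 100% = DMSO vehicle control wells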
- test_settings: second compound 0.316 µM; first compound 0.1 µM; active compounds read low
As shown below, each of these compounds has a reported viability, T/C value.
The response must be a number in % with no trailing unit.

Examples from the recorded data:
- compound: "CC(C)n1nc(-c2ccc3oc(N)nc3c2)c2c(N)ncnc21 + C#Cc1c(F)ccc2cc(O)cc(-c3ncc4c(N5CC6CCC(C5)N6)nc(OCC56CCCN5CC(F)C6)nc4c3F)c12"
  value: 50
- compound: "CC(Nc1ccc2c(c1)OCCn1cc(N3C(=O)OCC3C(F)F)nc1-2)C(N)=O (centres undefined) + C#Cc1c(F)ccc2cc(O)cc(-c3ncc4c(N5CC6CCC(C5)N6)nc(OCC56CCCN5CC(F)C6)nc4c3F)c12"
  value: 83.3
- compound: "CC(=O)OC12COC1CC(O)C1(C)C(=O)C(O)C3=C(C)C(OC(=O)C(O)C(NC(=O)OC(C)(C)C)c4ccccc4)CC(O)(C(OC(=O)c4ccccc4)C21)C3(C)C (centres undefined) + C=CC(=O)N1CCN(c2nc(OCC3CCCN3C)nc3c(F)c(-c4nc(N)cc(C)c4C(F)(F)F)c(Cl)cc23)C(C)C1"
  value: 34.3

Shifting focus to the compound that follows.
Q: What viability, T/C value was documented for this compound, C=CC(=O)Nc1cc(Nc2nccc(-c3cn(C)c4ccccc34)n2)c(OC)cc1N(C)CCN(C)C + C=CC(=O)N1CCN(c2nc(OCC3CCCN3C)nc3c(F)c(-c4nc(N)cc(C)c4C(F)(F)F)c(Cl)cc23)C(C)C1 ?
Ans: 107
